The reported measurements were obtained from PubChem BioAssay AID1159580.

Please provide measured normalized growth for the entries that follow.
Assay: chemical genetic growth profiling, strain panel (AID 1159580);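 also: tested at 20 µM; growth read once vehicle control cultures reached saturation at 30 °C; 1 = growth at the plate median or of vehicle wells; lower values mean less growth of the strain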
Details: S. cerevisiae deletion strains, growth OD, locus YML016C, strain PPZ1, active compounds read low
The whole screen tested about 5,500 compounds, of which about 2,000 (36%) were called active. Not shown: some 18% with an inconclusive outcome. The list shows a part of the results.
Answers are plain numbers.

Worked examples, 8 molecules total:
molecule | normalized growth
COc1ccc(/C=C/c2cc(O)cc(O[C@@H]3O[C@H](CO)[C@@H](O)[C@H](O)[C@H]3O)c2)cc1O | 1.02
CC[C@@H](C(=O)O)[C@@H]1O[C@@H]([C@@H](C)[C@H](O)[C@H](C)C(=O)[C@H](CC)[C@H]2O[C@]3(C=C[C@@H](O)[C@]4(CC[C@@](C)(C5CC[C@](O)(CC)[C@H](C)O5)O4)O3)[C@H](C)C[C@@H]2C)[C@@H](C)C[C@H]1C (stereo not given in full) | 0.402
COP(=S)(OC)Oc1ccc(SC)c(C)c1 | 1.02
COc1cc(O)cc(/C=C/c2ccccc2)c1 | 0.924
CN(Cc1cc(Br)cc(Br)c1N)C1CCCCC1 | 1.01
Nc1c(Br)cc(Br)cc1CNC1CCC(O)CC1 (stereo not given) | 1
C/C=C/c1ccc(OC)cc1 | 1.01
CC[C@]12CCCN3CCc4c(n(c5ccccc45)C(=O)C1)[C@@H]32 | 1

// each listed molecule needs a value for normalized growth
1. CC(=O)C1=C(O)C2C3c4c[nH]c5cccc(c45)CC3C(C)(C)N2C1=O (stereo not given)
2. CCOC(=O)c1ccc(N)cc1

result:
[1, 1]

====

Test: chemical genetic growth profiling, strain panel (AID 1159580)
Conditions: S. cerevisiae deletion strains, growth OD, locus YGL173C, strain kem1, active compounds read low
In all, about 5,500 compounds went through this assay and about 2,000 (36%) were called active. Not shown: some 18% with an inconclusive outcome. The list shows a part of the results.
Please provide measured normalized growth for the entries that follow.
Numbers only.

molecule | reported.value
C[C@@H]1CC2C3CCC4=CC(=O)C=C[C@]4(C)[C@@]3(F)[C@@H](O)C[C@]2(C)[C@@]1(O)C(=O)COP(=O)(O)O (stereo not given in full) | 1

// each listed molecule needs a value for normalized growth
1. OC/C=C/c1ccc(O)c(O)c1
2. NCCCCN=C(N)N
3. c1ccc(-c2ccc(C(c3ccccc3)n3ccnc3)cc2)cc1 (stereo not given)

result:
[1.01, 1.02, 0.0886]

query: normalized growth lookup needed for `Oc1ccc(/C=C/c2cc(O)cc(O)c2)cc1` , thanks.
result: 0.994

====

Assay: chemical genetic growth profiling, strain panel (AID 1159580)
Conditions: S. cerevisiae deletion strains, growth OD, locus YNL322C, strain KRE1 (second series), active compounds read low
Screen size: about 5,500 compounds; about 2,000 (36%) were called active. Inconclusive results (about 18%) are left out. The list shows a part of the results.
metric: normalized growth
Answers are plain numbers.

molecule | normalized growth
COc1ccc(/C=C/c2cc(O)cc(O)c2)cc1 | 1.01
COC(=O)[C@H]1[C@H]2C[C@@H]3c4[nH]c5cc(OC)ccc5c4CCN3C[C@H]2C[C@@H](OC(=O)c2cc(OC)c(OC)c(OC)c2)[C@@H]1OC | 0.976
COc1ccccc1OCC(O)CN1CCN(CC(=O)Nc2c(C)cccc2C)CC1 (stereo not given) | 1.02
CC[C@]12CCCN3CCc4c(n(c5ccccc45)[C@](O)(C(=O)OC)C1)[C@@H]32 | 0.969
Cc1ccc(C(C)C)cc2c(C)ccc1-2 | 0.994
CCn1cc(C(=O)O)c(=O)c2ccc(C)nc21 | 0.983
CCn1cc(C(=O)O)c(=O)c2cc3c(cc21)OCO3 | 0.959
COc1cc(/C=C/C(=O)O)ccc1O | 1.01

// each listed molecule needs a value for normalized growth
1. O=C1N=C(O)CN1/N=C\c1ccc(-c2ccc([N+](=O)[O-])cc2)o1
2. CC1=C(/C=C/C(C)=C/C=C/C(C)=C/C(=O)O)C(C)(C)CCC1
3. O=C(/C=C/c1ccc(O)c(O)c1)O[C@@H]1C[C@](O)(C(=O)O)C[C@@H](O)[C@H]1O
4. O=C(O)c1cc(=O)c(O)c2c(O)c(O)ccc2c1
5. CC(=O)O[C@H]1CC[C@@]2(C)C(=CCC3C2CC[C@@]2(C)C3CC[C@@H]2C(C)CCCC(C)C)C1 (stereo not given in full)
6. O=c1cccc2n1C[C@H]1CNCC2C1

result:
1: 0.976; 2: 0.989; 3: 0.976; 4: 0.981; 5: 0.989; 6: 1

====

Test: chemical genetic growth profiling, strain panel (AID 1159580)
Settings: S. cerevisiae deletion strains, growth OD, locus YOR184W, strain ser1, active compounds read low
The whole screen tested about 5,500 compounds, of which about 2,000 (36%) were called active. Another 18% or so got no clear call; they are omitted. This is one part of the list.
# label = Yes if normalized growth < 1 else No

Consider the worked cases shown below.
compound | class
CC(COc1ccccc1)N(CCCl)Cc1ccccc1 (centres undefined) | Yes
COc1cc(O)cc(/C=C/c2ccccc2)c1 | Yes
CC(=O)C1=C(O)C2C3c4c[nH]c5cccc(c45)CC3C(C)(C)N2C1=O (centres undefined) | No
COc1ccc2c(c1O)-c1c(OC)c(OC)cc3c1[C@H](C2)N(C)CC3 | No
COc1c(C(=O)O)ccc2c1CCC(C)(C)O2 | No

query: For CC(Cc1ccc(O)c(O)c1)(NN)C(=O)O (centres undefined) , is the recorded normalized growth below the cut-off of 1?
result: No

query: For O=C(O)CCCCC1SCC2NC(=O)NC21 (centres undefined) , is the recorded normalized growth below the cut-off of 1?
result: Yes

====

Test: chemical genetic growth profiling, strain panel (AID 1159580);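 also: tested at 20 µM; growth read once vehicle control cultures reached saturation at 30 °C; 1 = growth at the plate median or of vehicle wells; lower values mean less growth of the strain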
Settings: S. cerevisiae deletion strains, growth OD, locus YBR023C, strain chs3, active compounds read low
In all, about 5,500 compounds went through this assay and about 2,000 (36%) were called active. Another 18% or so got no clear call; they are omitted. This is one part of the list.
Please provide measured normalized growth for the entries that follow.
Answers are plain numbers.

// each listed compound needs a value for normalized growth
1. CCn1cc(C(=O)O)c(=O)c2cnc(N3CCCC3)nc21
2. CC(=O)OCC(=O)[C@@]12OC(C)(C)O[C@@H]1CC1C3C[C@H](F)C4=CC(=O)C=C[C@]4(C)[C@@]3(F)[C@@H](O)C[C@@]12C (stereo partly drawn)
3. CC[C@@H](C(=O)[C@@H](C)[C@@H](O)[C@H](C)[C@@H]1O[C@@H]([C@@H](CC)C(=O)O)CC[C@@H]1C)[C@H]1OC2(C=C[C@@H](O)[C@]3(CC[C@@](C)([C@H]4CC[C@](O)(CC)[C@H](C)O4)O3)O2)[C@H](C)C[C@@H]1C (stereo partly drawn)

result:
1
1.03
0.839

====

Experiment: chemical genetic growth profiling, strain panel (AID 1159580);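 also: tested at 20 µM; growth read once vehicle control cultures reached saturation at 30 °C; 1 = growth at the plate median or of vehicle wells; lower values mean less growth of the strain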
Details: S. cerevisiae deletion strains, growth OD, locus YOR265W, strain rbl2, active compounds read low
In all, about 5,500 compounds went through this assay and about 2,000 (36%) were called active. Roughly 18% stayed inconclusive and do not appear here. The list shows a part of the results.
metric: normalized growth

Worked examples, 3 compounds total:
compound | normalized growth
CC(=O)OCC(=O)[C@@]12OC(C)(C)O[C@@H]1CC1C3C[C@H](F)C4=CC(=O)C=C[C@]4(C)[C@@]3(F)[C@@H](O)C[C@@]12C (some centres undefined) | 1.02 (inactive)
Oc1ccc(/C=C/c2cc(O)cc(O)c2)cc1 | 0.985 (inactive)
O=C(O)P(=O)(O)O | 0.996 (inactive)

// each listed compound needs a value for normalized growth
1. NCc1ccc(S(N)(=O)=O)cc1
2. COc1ccccc1OCC(O)CN1CCN(CC(=O)Nc2c(C)cccc2C)CC1 (centres undefined)
3. CCOP(=S)(OCC)Oc1ccc2c(C)c(Cl)c(=O)oc2c1

result:
1: 1.02 (inactive); 2: 0.98 (inactive); 3: 0.94 (inactive)

// each listed compound needs a value for normalized growth
1. Nc1nc(N)c2nc(CNc3ccc(C(=O)NC(CCC(=O)O)C(=O)O)cc3)cnc2n1 (centres undefined)
2. Nc1nccs1
3. O=C1OCCN1/N=C\c1ccc([N+](=O)[O-])o1

result:
1: 0.989 (inactive); 2: 0.997 (inactive); 3: 0.997 (inactive)

====

Assay: chemical genetic growth profiling, strain panel (AID 1159580);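 also: tested at 20 µM; growth read once vehicle control cultures reached saturation at 30 °C; 1 = growth at the plate median or of vehicle wells; lower values mean less growth of the strain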
Conditions: S. cerevisiae deletion strains, growth OD, locus YER016W, strain bim1, active compounds read low
Screen size: about 5,500 compounds; about 2,000 (36%) were called active. Not shown: some 18% with an inconclusive outcome. This is one part of the list.
metric: normalized growth

molecule | reported.value
COc1ccc(/C=C/C(=O)c2ccc(O)cc2O)cc1 | 0.488 (active)
C=CCc1cc(OC)c2c(c1OC)OCO2 | 0.938 (inactive)

// each listed molecule needs a value for normalized growth
1. COc1cc2c(cc1O)CC1c3c(cc(O)c(OC)c3-2)CCN1C (stereo not given)
2. CC[C@@H](C(=O)[C@@H](C)[C@@H](O)[C@H](C)[C@@H]1O[C@@H]([C@@H](CC)C(=O)O)CC[C@@H]1C)[C@H]1OC2(C=C[C@@H](O)[C@]3(CC[C@@](C)([C@H]4CC[C@](O)(CC)[C@H](C)O4)O3)O2)[C@H](C)C[C@@H]1C (stereo not given in full)
3. O=C(O)c1cc(O)c(O)c(O)c1
4. CC1(C)C2CC(=O)O[C@@]3(C)C4=CC(=O)O[C@@H](c5ccoc5)[C@]4(C)CCC3[C@@]2(C)C=C[C@H]1O (stereo not given in full)
5. CC1=C(/C=C/C(C)=C/C=C/C(C)=C\C(=O)O)C(C)(C)CCC1
6. CCn1cc(C(=O)O)c(=O)c2ccc(C)nc21
7. CC12CCC(CC1)C(C)(C)O2
8. O=C1CN(/N=C\c2ccc([N+](=O)[O-])o2)C(=O)N1

result:
1.02 (inactive)
0.95 (inactive)
1.04 (inactive)
0.988 (inactive)
1.02 (inactive)
0.924 (inactive)
0.992 (inactive)
0.96 (inactive)

// each listed molecule needs a value for normalized growth
1. N[C@@H](CCC(=O)N[C@@H](CCSC(CC(=O)O)C(=O)O)C(=O)NCC(=O)O)C(=O)O (stereo not given in full)
2. CC[C@]1(O)CC2CN(CCc3c([nH]c4ccccc34)[C@@](C(=O)OC)(c3cc4c(cc3OC)N(C=O)[C@H]3[C@@](O)(C(=O)OC)[C@H](OC(C)=O)[C@]5(CC)C=CCN6CC[C@]43[C@@H]65)C2)C1 (stereo not given in full)
3. COc1ccc(/C=C/C(=O)O)cc1OC
4. CC1=C(/C=C/C(C)=C/C=C/C(C)=C/C=C/C=C(C)/C=C/C=C(C)/C=C/C2=C(C)CCCC2(C)C)C(C)(C)CCC1
5. CCn1cc(C(=O)O)c(=O)c2cc3c(cc21)OCO3

result:
1. 0.978 (inactive)
2. 0.989 (inactive)
3. 0.991 (inactive)
4. 1 (inactive)
5. 0.993 (inactive)

// each listed molecule needs a value for normalized growth
1. C=CCN1CC[C@]23c4c5ccc(O)c4OC2C(=O)CC[C@@]3(O)[C@H]1C5 (stereo not given in full)
2. CCn1cc(C(=O)O)c(=O)c2cnc(N3CCNCC3)nc21
3. S=c1[nH]c2ccccc2s1
4. COc1ccc(/C=C/C(=O)c2cc(O)ccc2O)cc1
5. OC1CCCCC1N1CCC(c2ccccc2)CC1 (stereo not given)
6. CCn1cc(C(=O)O)c(=O)c2cnc(N3CCCC3)nc21
7. NCc1ccc(S(N)(=O)=O)cc1
8. O=C(O)CNCP(=O)(O)O

result:
1: 0.972 (inactive); 2: 1.02 (inactive); 3: 0.987 (inactive); 4: 0.426 (active); 5: 0.993 (inactive); 6: 1.01 (inactive); 7: 1.02 (inactive); 8: 1.01 (inactive)

// each listed molecule needs a value for normalized growth
1. Nc1nc2c(c(=O)[nH]1)N(C=O)C(CNc1ccc(C(=O)N[C@@H](CCC(=O)O)C(=O)O)cc1)CN2 (stereo not given in full)
2. COc1ccc(-c2cc(C(F)F)nn2-c2ccc(S(N)(=O)=O)cc2)cc1F

result:
1. 0.99 (inactive)
2. 1 (inactive)
